pIC50 values for the compounds below.
SYSTEM: A17 RT (Human immunodeficiency virus type 1 group M subtype B, UniProt P04585, K690N/Y768C)
Construct: A17 RT was employed in the assay
METHOD DESCRIPTION: biochemical
pIC50: −log10 of the molar value.

Before answering, review these 3 worked examples.
>>> print(df.to_string())
                                   compound  observable  endpoint_value
0  C=CC1(C(F)(F)F)OC(=O)Nc2ccc(Cl)cc21 (stereo not shown) [Compound 23]       pIC50          < 4.52
1  C=CCC1(C(F)(F)F)OC(=O)Nc2ccc(Cl)cc21 (stereo not shown) [Compound 25]       pIC50          < 4.00
2  S=C1Nc2ccc(Cl)cc2C(c2ccccc2)(C2CC2)O1 (stereo not shown) [Compound 46]       pIC50          < 3.52

Now examine the next entry.
# input compound: CCC1(c2ccccc2)OC(=S)Nc2ccc(Cl)cc21 (stereo not shown) [Compound 44] ; wanted: its pIC50
< 3.52
